- system: human glucagon receptor (human, UniProt P47871 26-477)
- Sequence (P47871 26-477): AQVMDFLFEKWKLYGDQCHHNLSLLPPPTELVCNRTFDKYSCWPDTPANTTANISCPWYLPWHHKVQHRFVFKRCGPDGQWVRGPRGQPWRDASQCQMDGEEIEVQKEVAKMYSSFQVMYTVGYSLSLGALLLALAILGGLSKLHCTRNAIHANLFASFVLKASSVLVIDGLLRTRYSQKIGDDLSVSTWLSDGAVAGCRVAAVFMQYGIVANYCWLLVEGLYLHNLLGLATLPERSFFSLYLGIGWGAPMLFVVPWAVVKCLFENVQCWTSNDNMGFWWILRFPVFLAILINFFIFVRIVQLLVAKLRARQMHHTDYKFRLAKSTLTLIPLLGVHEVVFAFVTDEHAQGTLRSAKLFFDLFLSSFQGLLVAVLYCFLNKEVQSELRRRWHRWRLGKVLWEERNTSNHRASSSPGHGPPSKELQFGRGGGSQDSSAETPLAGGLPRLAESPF
- assay.name: cell-based or functional assay
Where no end group is shown, it is not given here. [ ]: non-standard residue; d: D form. Aib = CC(C)(N)C(=O)O
Criterion: hGcgR CRE Luc EC50 (pM) meeting or surpassing 80 pM. Met: TRUE. Not met: FALSE.

binder | class.label
Y[Aib]QGTFTSDYSIYLEKQAA[Aib]EFVNWLLAGGPSSGAPPPS-NH2 (not fully specified (residue 16); printed as Y-Aib-QGTFTSDYSIYLE-K[2-[2-[2-[[2-[2-[2-[[(4S)-4-carboxy-4-(19-carboxynonadecanoylamino)butanoyl]amino]ethoxy]ethoxy]acetyl]amino]ethoxy]ethoxy]acetyl]-QAA-Aib-EFVNWLLAGGPSSGAPPPS-NH2) [Compound No. 15] | TRUE
H[Aib]HGTFTSDYSKYLEKQAA[Aib]EFVQWLLEGGPSSGAPPPS-NH2 (not fully specified (residue 16); printed as H-Aib-HGTFTSDYSKYLE-K[(2S)-2-amino-6-[[(2S)-2-amino-6-[[(4S)-4-carboxy-4-(19-carboxynonadecanoylamino)butanoyl]amino]hexanoyl]amino]hexanoyl]-QAA-Aib-EFVQWLLEGGPSSGAPPPS-NH2) [Compound No. 36] | FALSE
Y[Aib]QGTFTSDYSIYLEKQAA[Aib]EFVQWLLEGGPSSGAPPPS-NH2 (not fully specified (residue 16)) [Compound No. 17] | TRUE
H[Aib]HGTFTSDYSIYLEKQAA[Aib]EFVQWLLEGGPSSGAPPPS-NH2 (not fully specified (residue 16); printed as H-Aib-HGTFTSDYSIYLE-K[2-[2-[2-[[2-[2-[2-[[(4S)-4-carboxy-4-(19-carboxynonadecanoylamino)butanoyl]amino]ethoxy]ethoxy]acetyl]amino]ethoxy]ethoxy]acetyl]-QAA-Aib-EFVQWLLEGGPSSGAPPPS-NH2) [Compound No. 44] | FALSE
